Quick reference: TOP MFI of the listed items.
target.or.system: cyno SIRPα stably expressed on CHOK1 cells (cyno)
experiment.description: FACS, CHOK1-Cyno SIRPα cells
reported.endpoint: TOP MFI

binder="025c (antibody, V domains shown) VH: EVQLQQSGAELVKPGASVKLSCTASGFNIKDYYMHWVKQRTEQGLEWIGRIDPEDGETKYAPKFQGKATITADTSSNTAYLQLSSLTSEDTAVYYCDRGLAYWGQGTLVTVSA VL: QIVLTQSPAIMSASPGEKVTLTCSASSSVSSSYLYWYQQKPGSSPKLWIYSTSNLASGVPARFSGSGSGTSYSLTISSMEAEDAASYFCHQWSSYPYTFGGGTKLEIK" reported_endpoint="TOP MFI" measured_value="30800 MFI"
binder="071c (antibody, V domains shown) VH: QIQLVQSGPELKKPGETVKISCKASGYTFTTYGMSWVKQAPGKGLKWMVWINTYSGVPTYADDFQGRFAFSLETSASTSYLQINNLRNEDTATYFCARDPHYYGTSPAWFAYWGQGTLVTVSA VL: DIVMTQSQKFMSTTIGDRVIITCKASQIVGIAVAWYQQKPGQSPKLLIYSASNRFTGVPDRFTGSGSGTDFTLTISNMQSEDLADYFCQQYSTYPFTFGSGTKLEIK" reported_endpoint="TOP MFI" measured_value="32300 MFI"
